- Assay Notes: Pharmacokinetics in monkeys on Day 1 and Day 27
- Run Parameters: female, monkey, in vivo, 15 mg/kg, Day 27, 15 mg/kg, female

- Compound: "Cc1nc2cccc(N)c2c(=O)n1C1CCC(=O)NC1=O (stereo not shown) [compound of Formula I]"
  Tmax / h: 4

====

- Assay Notes: Pharmacokinetics in monkeys on Day 1 and Day 27
- Run Parameters: male, monkey, in vivo, 1.5 mg/kg, Day 1, 1.5 mg/kg, male; read-out: AUC0-24

- Molecule: "Cc1nc2cccc(N)c2c(=O)n1C1CCC(=O)NC1=O (stereo not shown) [compound of Formula I]"
  AUC(0-t): "4600 ng·h/mL"
